For each of the binders below, state its OD450-650 nM, 300 ng/ml PDL1 binding.
- TARGET OR TEST SYSTEM: T1, PDL1-hFc (UniProt Q9NZQ7 19-238)
- T1 construct: Coated at 1 µg/ml in the ELISAs of the chimeric and humanized antibodies; construct not described
- T1 sequence (Q9NZQ7 19-238): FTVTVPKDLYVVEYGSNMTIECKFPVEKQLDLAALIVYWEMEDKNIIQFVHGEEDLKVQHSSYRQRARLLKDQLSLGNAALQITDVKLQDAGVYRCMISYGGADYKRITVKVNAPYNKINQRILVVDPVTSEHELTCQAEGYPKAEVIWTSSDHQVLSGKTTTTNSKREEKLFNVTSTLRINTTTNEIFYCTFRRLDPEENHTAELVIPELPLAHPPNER
- ASSAY COMMENT: ELISA, PDL1-hFc coated 1 µg/ml, antibody supernatant at 300 ng/ml, anti-human Kappa HRP
Answers are plain numbers, in OD.

Guide cases for OD450-650 nM, 300 ng/ml PDL1 binding, answers given:
BINDER	UNIT TAG	REPORTED VALUE
3C3 heavy chain M / light chain Hu0 (antibody, V domains shown, Human IgG, kappa, from pTCAED vectors; tested as culture supernatant) VH: EVQLQESGPGLTKPSQTLSLTCSVTGYSITSDYWDWIRKFPGNKLEYMGYISYTGSTYYNPSLRSRISITRDTSKNQYYLQLSSVTSEDSATYYCARRGGWLSPFVYWGQGTLVTVSA VL: DIVMTQSPDSLAVSLGERATINCKSRQSLLFSSNQKNSLAWYQQKPGQPPKLLIYWASTRESGVPDRFSGSGSGTDFTLTISSLQAEDVAVYYCQQYYTYPFTFGQGTKLEIK	OD	1.58
3C3 heavy chain Hu-B1 / light chain Hu2 (antibody, V domains shown, Human IgG, kappa, from pTCAED vectors; tested as culture supernatant) VH: EVQLQESGPGLVKPSQTLSLTCTVSGYSITSDYWDWIRQPPGKGLEWMGYISYTGSTYYNPSLRSRITISRDTSKNQYSLKLSSVTAADTAVYYCARRGGWLSPFVYWGQGTLVTVSS VL: DIVMTQTPLSLSVTPGQPASISCKSRQSLLFSSNQKNSLAWYLQKPGQSPQLLIYWASTRESGVPDRFSGSGSGTDFTLKISRVEAEDVGVYYCQQYYTYPFTFGQGTKLEIK	OD	0.349

# input Recorded OD450-650 nM, 300 ng/ml PDL1 binding of 3C3 heavy chain Hu-B1 / light chain M (antibody, V domains shown, Human IgG, kappa, from pTCAED vectors; tested as culture supernatant) VH: EVQLQESGPGLVKPSQTLSLTCTVSGYSITSDYWDWIRQPPGKGLEWMGYISYTGSTYYNPSLRSRITISRDTSKNQYSLKLSSVTAADTAVYYCARRGGWLSPFVYWGQGTLVTVSS VL: DTVMSQSPSSLGVSVGERVTLTCKSRQSLLFSSNQKNSLAWYQQKPGQSPKLLIYWASTRESGVPDRFTGSGSGTDFTLTISSVKSEDLAVYYCQQYYTYPFTFGAGTSLELK , please.
# output 0.61
